Values compiled from patent US10093621B2.

For each of the molecules below, state its IC50.
# Test system: A2780
# Procedure Text: Antiproliferative activity, sulphorhodamine B assay, 72 hours of treatment
# Type: cell-based
# Condition Parameters: A2780 (ovary)
# Experimental: The antiproliferative activity of the various compounds 1a-c (in both monotherapy and combined treatment) on the different tumour cell lines was evaluated by sulphorhodamine B assay after 72 hours of treatment, and the dose able to inhibit 50% of growth (IC50) was calculated for the monotherapy (the results are summarized in Table 1 and Table 3), while the Kern Index (KI) was determined as the synergism/antagonism […] index for the combined treatment (the results are depicted in FIG. 2).
Your answer is read as nM, so omit the unit and give the number.

Per the records, this molecule ( CC1=C(/C=C/C(C)=C/C=C/C(C)=C/C(=O)Nc2ccc(O)cc2)C(C)(C)CCC1=NOCC(=O)[O-].[Na+] [Salt 1a] ) has IC50 equal to 2780

Per the records, this molecule ( CCCCC(ON=C1CCC(C)(C)C(/C=C/C(C)=C/C=C/C(C)=C/C(=O)Nc2ccc(O)cc2)=C1C)C(=O)O (stereo not drawn) [LOM1133] ) has IC50 equal to 2370

Per the records, this molecule ( CC1=C(/C=C/C(C)=C/C=C/C(C)=C/C(=O)Nc2ccc(O)cc2)C(C)(C)CCC1=NOCCCC(=O)O [LOM1098] ) has IC50 equal to 3590
